Assay: Intrinsic clearance in human liver microsomes at 1 uM in presence of NADPH by LC-MS/MS analysis
Format: ADME, Microsome
quantity: Intrinsic clearance (µL/min/mg)

Use these answered entries as a reference point.
N#C/C(=C\c1c[nH]nc1-c1cccc(Br)c1)C(=O)O :: 3
N#C/C(=C\c1c[nH]nc1-c1cccc(C(F)(F)F)c1)C(=O)O :: 3

[P] N#C/C(=C\c1c[nH]nc1-c1ccc2ccccc2c1)C(=O)O
[Q] CC(C)(C)OC(=O)/C(C#N)=C/c1c[nH]nc1-c1cccc(C(F)(F)F)c1
[R] CCOC(=O)/C(C#N)=C/c1c[nH]nc1-c1ccc(Cl)c(Cl)c1
[S] N#C/C(=C\c1c[nH]nc1-c1ccc(Cl)c(Cl)c1)C(=O)O
[T] N#C/C(=C\c1c[nH]nc1-c1cc(Br)cc(Br)c1)C(=O)O
Asked: Sort (5 compounds) by Intrinsic clearance: min first. Order the labels as requested and list them.
Given back: Q, S, P, T, R

---

Assay: Half life in human liver microsomes at 1 uM in presence of NADPH by LC-MS/MS analysis
Type: ADME, Microsome
quantity: t1/2 (h)

[P] N#C/C(=C\c1c[nH]nc1-c1cc(Br)cc(Br)c1)C(=O)O
[Q] N#C/C(=C\c1c[nH]nc1-c1ccc2ccccc2c1)C(=O)O
[R] CCOC(=O)/C(C#N)=C/c1c[nH]nc1-c1ccc(Cl)c(Cl)c1
Asked: // rank above by t1/2: first = highest number Order the labels as requested and list them.
Given back: Q, P, R
(Q: 1.15 h, P: 0.257 h, R: 0.03 h)

---

Test: Inhibition of mitochondrial pyruvate carrier in C57BL/6J mouse cardiac mitochondria assessed as inhibition of pyruvate/malate-induced mitochondrial respiration by steady-state ADP coupled assay
Set-up: species or system Heart
quantity: EC50 (µM)

N#C/C(=C\c1c[nH]nc1-c1ccc([N+](=O)[O-])cc1)C(=O)O :: 4.12
N#C/C(=C\c1c[nH]nc1-c1ccc(F)c([N+](=O)[O-])c1)C(=O)O :: 0.81

[P] N#C/C(=C\c1c[nH]nc1-c1cccc(F)c1)C(=O)O
[Q] N#C/C(=C\c1c[nH]nc1-c1ccccc1Cl)C(=O)O
[R] N#C/C(=C\c1cn(Cc2ccccc2)nc1-c1ccc2ccccc2c1)C(=O)O
[S] N#C/C(=C\c1cn(-c2ccccc2)c2ccccc12)C(=O)O
Asked: Sort (4 molecules) by EC50: min first. Order the labels as requested and list them.
Given back: S, Q, P, R
(S: 0.241 µM, Q: 0.516 µM, P: 0.785 µM, R: 1.29 µM)

[P] N#C/C(=C\c1c[nH]nc1-c1ccc(Cl)cc1)C(=O)O
[Q] N#C/C(=C\c1c[nH]nc1-c1ccc(C(F)(F)F)cc1)C(=O)O
Asked: Look at P and Q . Which one has the lower recorded EC50 number? Mark your selection by writing its label.
Given back: Q

---

Assay: Kinetic solubility of the compound in PBS at pH 7.4 measured after 24 hrs by LC-MS/MS analysis
Assay type: physicochemical
Conditions: buffer, pH 7.4, 24 h
quantity: Kinetic_solubility (µM)

N#C/C(=C\c1c[nH]nc1-c1cc(Br)cc(Br)c1)C(=O)O :: 22

[P] CCOC(=O)/C(C#N)=C/c1c[nH]nc1-c1ccc(Cl)c(Cl)c1
[Q] CC(C)(C)OC(=O)/C(C#N)=C/c1c[nH]nc1-c1cccc(C(F)(F)F)c1
[R] N#C/C(=C\c1c[nH]nc1-c1cccc(Br)c1)C(=O)O
Asked: Sort (3 compounds) by Kinetic_solubility: min first. Order the labels as requested and list them.
Given back: R, P, Q
